- subject-of-test: NHERF4_1, Q86UT5-2
- Sequence (Q86UT5 other isoform, or with tags, fused parts or gaps): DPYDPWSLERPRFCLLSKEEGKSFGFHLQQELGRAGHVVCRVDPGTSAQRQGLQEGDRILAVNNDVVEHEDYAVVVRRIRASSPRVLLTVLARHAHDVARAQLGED
- experiment-description: holdup assay
- Parameters: key: below the threshold = too weak to quantify, mostly under pKd 3.1 to 4
- particulars: plain residues with an end cap or a label only (N-terminal biotin on a linker: ado-ado)
For each entry below, report its pKd value.
Lab note: record the figure alone, no unit after it.

Enquiry: Quote pKd reported for FNSYSLTGYV [CLDN2, P57739] please.
Return: 3.9

Enquiry: Give recorded pKd. QHKTQLQTLI [BPIFA2, Q96DR5]
Return: 3.85

Enquiry: Annotate the binder IKAIVDLTGL [TRAF2, Q12933] with its measured pKd.
Return: 3.76

Enquiry: Name the recorded pKd of the item VDSTVKVWTC [TRAF7, Q6Q0C0] in your answer.
Return: 3.67

Enquiry: Give the reported value of pKd for this record: RHGSCVETSL [TMEM151B, Q8IW70]
Return: 4.51

Enquiry: Tell me measured pKd for SKSNFGSEPL [KIF17, Q9P2E2] please.
Return: 4.21

Every entry's value here was drawn from paper PMC9482650.
